assay.details: chemical genetic growth profiling, strain panel (AID 1159580);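 also: tested at 20 µM; growth read once vehicle control cultures reached saturation at 30 °C; 1 = growth at the plate median or of vehicle wells; lower values mean less growth of the strain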
study.conditions: S. cerevisiae deletion strains, growth OD, locus YBL061C, strain skt5
In all, about 5,500 compounds went through this assay and about 2,000 (36%) were called active. About 18% were inconclusive and are not listed. Rule as the data show it: active = normalized growth mostly below about 0.91 (no sharp cut-off); inconclusive = no clear call, values can overlap the other calls; inactive = mostly above about 0.92. This is one part of the list.
Valid outcomes are listed here; reply with one: active, inactive

I would be grateful if you could indicate the recorded call for CCOC(=O)c1c(C)cc(O)c(C=O)c1O .
active

I would be grateful if you could indicate the recorded call for CC(N)C(=O)OC(C)(C)Cc1ccc(Cl)cc1 (stereo unspecified) .
inactive

I would be grateful if you could indicate the recorded call for CN1CCCN=C1COC(=O)C(O)(c1ccccc1)C1CCCCC1 (stereo unspecified) .
inactive

I would be grateful if you could indicate the recorded call for COc1ccc2cc([C@H](C)C(=O)O)ccc2c1 .
inactive

I would be grateful if you could indicate the recorded call for CC(C(=O)O)c1ccc(-c2ccccc2)c(F)c1 (stereo unspecified) .
inactive

I would be grateful if you could indicate the recorded call for CCOC(=O)c1c(C)c(Cl)c(O)c(Cl)c1O .
active

I would be grateful if you could indicate the recorded call for CC(C)OC(=O)C(C)(C)Oc1ccc(C(=O)c2ccc(Cl)cc2)cc1 .
inactive

I would be grateful if you could indicate the recorded call for NCC1CCC(C(=O)O)CC1 (stereo unspecified) .
inactive

I would be grateful if you could indicate the recorded call for NCCSSCCN .
inactive

I would be grateful if you could indicate the recorded call for NC(=O)c1ccc[n+]([C@@H]2O[C@H](COP(=O)([O-])OP(=O)(O)OC[C@H]3O[C@@H](n4cnc5c(N)ncnc54)[C@H](O)[C@@H]3O)[C@@H](O)[C@H]2O)c1 .
inactive

I would be grateful if you could indicate the recorded call for C[C@H]1CC2C([C@@H](O)C[C@@]3(C)C2CC[C@]3(O)C(=O)CO)[C@@]2(C)C=CC(=O)C=C12 (stereo partly specified) .
inactive

###

# key: entry, value: normalized growth
assay.details: chemical genetic growth profiling, strain panel (AID 1159580);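 also: tested at 20 µM; growth read once vehicle control cultures reached saturation at 30 °C; 1 = growth at the plate median or of vehicle wells; lower values mean less growth of the strain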
study.conditions: S. cerevisiae deletion strains, growth OD, locus YHR027C, strain rpn1, active compounds read low
The whole screen tested about 5,500 compounds, of which about 2,000 (36%) were called active. Another 18% or so got no clear call; they are omitted. The list shows a part of the results.
# answer = number (no unit)

Use these answered entries as a reference point.
molecule: CCOC(=O)[C@H](CCc1ccccc1)N[C@H]1CCc2ccccc2N(CC(=O)O)C1=O
endpoint.label: normalized growth
recorded.measurement: 0.992

molecule: COc1cc(O)c(C(=O)/C=C/c2ccc(O)c(OC)c2)c(OC)c1
endpoint.label: normalized growth
recorded.measurement: 0.965

molecule: NCCSSCCN
endpoint.label: normalized growth
recorded.measurement: 0.997

molecule: CC(N)C(=O)OC(C)(C)Cc1ccc(Cl)cc1 (stereo unspecified)
endpoint.label: normalized growth
recorded.measurement: 1.01

molecule: O=C(O)c1c2ccccc2cc2ccccc12
endpoint.label: normalized growth
recorded.measurement: 1.01

molecule: CN(C)C(=S)SSC(=S)N(C)C
endpoint.label: normalized growth
recorded.measurement: 0.0609

molecule: COc1cc(/C=C/C(=O)/C=C(O)/C=C/c2ccc(O)c(OC)c2)ccc1O
endpoint.label: normalized growth
recorded.measurement: 0.0816

molecule: CC1=C(C(C)O)C2=NC1C=c1[nH]c(c(C)c1C(C)O)=Cc1[nH]c(c(CCC(=O)O)c1C)C=c1[nH]c(c(C)c1CCC(=O)O)=C2 (stereo unspecified)
endpoint.label: normalized growth
recorded.measurement: 1

Which normalized growth value belongs to O=C(O)c1cc2ccccc2[nH]1 ?
1.02

Which normalized growth value belongs to COc1cc(O)c(C(=O)/C=C/c2ccccc2)c(OC)c1 ?
0.942

Which normalized growth value belongs to C=Cc1c2[nH]c(c1C)C=c1[nH]c(c(C)c1C=C)=CC1N=C(C=c3[nH]c(c(C)c3CCC(=O)O)=C2)C(CCC(=O)O)=C1C (stereo unspecified) ?
1.06
